Entries annotated with measured inhibition
assay-overview: inhibitors of HIV fusion peptide binding, primary screen, biochemical, uHTS, fluorescence dequenching (AID 1986)
experimental-context: cell-free peptide binding, 30 min, at 20 µM, active compounds read high
Hit rate of the full screen: of about 290,000 compounds, about 890 (0.31%) were called active. The full list was thinned out, with actives kept by preference.
Answer in %, number only, no unit symbol.

Worked cases, answers included:
O=C(CN1CCN(c2ccc(F)cc2)CC1)Nc1ccc(S(=O)(=O)N2CCOCC2)cc1 :: 0.3
O=C(O)c1cc(C(=O)O)cc(-c2ccc(/C=c3/sc4nc5ccccc5n4c3=O)o2)c1 :: 63.3
O=c1/c(=C\c2cccnc2)sc2nc3ccccc3n12 :: -0.5
CCCNC(=O)NC(=O)CSc1nnc(C)n1N :: 1.6
O=C1C=C(N2CCCCCC2)C2(CCCCC2)O1 :: 0.8

Quick one: inhibition of `COC(=O)/C=c1/sc2nc3ccccc3n2c1=O` ? 6.3

// next record `COCc1cc(C)n(CC(=O)Nc2c(C)cccc2C)c(=O)c1C#N` 0.1

Also `O=c1/c(=C/c2ccccn2)sc2nc3ccccc3n12` , if possible. -0.5

Also, COc1ccccc1CNC(=O)C1CCC(CNS(=O)(=O)c2ccc(F)cc2)CC1 (centres undefined) please. -1
